Test: Cmax in Sprague-Dawley rat at 3 mg/kg, po or 1 mg/kg, iv by LC-MS/MS analysis
Assay type: ADME, organism-based
Conditions: in vivo
Field: Cmax. Provide a value for each of the molecules that follow.
Dear colleague, please return just the value in nM, with no unit written.

Q: Query (molecule): `O=C(/C=C/c1ccccc1)N1CCC2(CCCC(=O)N2c2ccccc2)CC1` ; field requested: Cmax
Result: 150

Q: Can you check `O=C(/C=C/c1ccccc1)N1CCC2(CCCC(=O)N2c2ccc(Cl)c(F)c2)CC1` next?
Result: 239

Q: Record: `O=C(/C=C/c1ccccc1)N1CCC2(CCCC(=O)N2c2ccc(F)c(F)c2)CC1`
Result: 299

Q: Follow-up item: `O=C1CCCC2(CCN(c3cc(OCC(F)(F)F)ncn3)CC2)N1c1ccc(Cl)c(F)c1`
Result: 324

Q: Same again, this time with `O=C1CCCC2(CCN(c3cc(OCC(F)(F)F)ncn3)CC2)N1c1ccc(F)c(F)c1`
Result: 809
